Test Description: in vitro
Study Conditions: African green monkey
Quantity Name: CC50

CC[C@H]1CN2CCc3cc(OC)c(OC)cc3[C@@H]2C[C@@H]1C[C@H]1NCCc2cc(O)c(OC)cc21 | 49 µM
CC[C@H]1CN2CCc3cc(OC)c(OC)cc3[C@@H]2C[C@@H]1C[C@H]1NCCc2cc(OC)c(OC)cc21 | 2.17 µM

Would you kindly look at the next entry?
Inquiry: # input molecule: `O[C@H]1[C@H]2c3cc4c(cc3CN3CCC(=C[C@@H]1O)[C@H]23)OCO4` ; wanted: its CC50
Reply text: > 1000 µM

----------
Test Description: Cytotoxicity in HEK293T cells, CCK8 assay
Format: cell-based
Study Conditions: human
Quantity Name: CC50 (nM)
Give the quantity in nM, number only.

CC[C@H]1CN2CCc3cc(OC)c(OC)cc3[C@@H]2C[C@@H]1C[C@H]1NCCc2cc(O)c(OC)cc21 | 2000
O[C@H]1[C@H]2c3cc4c(cc3CN3CCC(=C[C@@H]1O)[C@H]23)OCO4 | 1040

Consider the record given below.
Inquiry: Field request: CC50 | item: `CC[C@H]1CN2CCc3cc(OC)c(OC)cc3[C@@H]2C[C@@H]1C[C@H]1NCCc2cc(OC)c(OC)cc21`
Reply text: 37.8
